run.parameters: 575.15 K; Liquid
measurement.type: vapor or sublimation pressure (kPa)

For the molecule CCCCCCCCCCCCCCCCCCCCCCCCCCCCC , what vapor or sublimation pressure is on record?
2.884

[I] CCCCCCCCCCCCCCCCCCCCCCCCCCCC
[II] CCCCCCCCCCCCCCCCCCCCCCCC
Lab note: check whether I or II shows the higher recorded vapor or sublimation pressure. Reply with the label of the item you choose.
II

###

run.parameters: 478.15 K; Liquid
measurement.type: vapor or sublimation pressure (kPa)

Solved entries (count: 2):
For the compound CCCCCCCCCCCCCCCCCCCCCCCC , what vapor or sublimation pressure is on record?
0.3225

For the compound CCCCCCCCCCCCCCCCCCCCCCCCCCCC , what vapor or sublimation pressure is on record?
0.06012

[A] CCCCCCCCCCCCCCCCCCCCCCCCCCCCC
[B] CCCCCCCCCCCCCCCCCCCCCC
Lab note: check whether A or B shows the higher recorded vapor or sublimation pressure. Reply with the label of the item you choose.
B
(B: 0.7674 kPa, A: 0.0391 kPa)
